- Study System: UniProt P29452
- Sequence (P29452 123-296 limits assumed): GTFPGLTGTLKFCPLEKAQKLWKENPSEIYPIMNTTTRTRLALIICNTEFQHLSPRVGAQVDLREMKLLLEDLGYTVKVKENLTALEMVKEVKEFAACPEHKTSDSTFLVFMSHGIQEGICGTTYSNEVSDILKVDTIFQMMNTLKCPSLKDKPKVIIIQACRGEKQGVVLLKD
- Sequence (P29452 315-402 limits assumed): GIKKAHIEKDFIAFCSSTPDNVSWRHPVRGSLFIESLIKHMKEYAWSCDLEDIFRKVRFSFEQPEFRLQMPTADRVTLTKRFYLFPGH
- Procedure Text: Dissociation constant Ki and irreversible rate constant k3 for irreversible inhibitors, ICE
- Type: biochemical
- Assay Conditions: continuous assay 60 min, reaction initiated by adding enzyme
Reported values of mICE k3/Ki for individual entries

- Compound: "CC(C)C[C@H](NC(=O)COc1ccccc1-c1ccccc1)C(=O)N[C@@H](CC(=O)O)C(=O)COc1c(F)cc(F)cc1F [Example 163]"
  mICE k3/Ki: "37,800 M^−1s^−1"
- Compound: "CC(C)[C@H](NC(=O)COc1ccc2ccccc2c1)C(=O)N[C@@H](CC(=O)O)C(=O)COc1c(F)c(F)cc(F)c1F [Example 157]"
  mICE k3/Ki: "39,300 M^−1s^−1"
- Compound: "CC(C)[C@H](NC(=O)COc1cccc2ccccc12)C(=O)N[C@@H](CC(=O)O)C(=O)COc1cc(C(F)(F)F)nn1-c1ccccc1 [Example 143]"
  mICE k3/Ki: "28,300 M^−1s^−1"
- Compound: "COC(=O)c1cc(OCC(=O)[C@H](CC(=O)O)NC(=O)[C@@H](NC(=O)COc2cccc3ccccc23)C(C)C)no1 [Example 144]"
  mICE k3/Ki: "42,500 M^−1s^−1"
- Compound: "CC(C)C[C@H](NC(=O)COc1ccccc1-c1ccccc1)C(=O)NC(CC(=O)O)C(=O)CF (mixture of isomers) [Example 57]"
  mICE k3/Ki: "37,400 M^−1s^−1"
- Compound: "CC(C)[C@H](NC(=O)COc1cccc2ccccc12)C(=O)N[C@@H](CC(=O)O)C(=O)COP(=O)(Cc1ccccc1)c1ccccc1 (stereo partly shown) [Example 107]"
  mICE k3/Ki: "106,000 M^−1s^−1"
- Compound: "CC(C)[C@H](NC(=O)CCOc1cccc2ccccc12)C(=O)N[C@@H](CC(=O)O)C(=O)COC(=O)c1c(Cl)cccc1Cl [Example 158]"
  mICE k3/Ki: "34,300 M^−1s^−1"
- Compound: "CC(C)C[C@H](NC(=O)COc1ccccc1-c1ccccc1)C(=O)N[C@@H](CC(=O)O)C(=O)COc1c(F)c(F)cc(F)c1F [Example 164]"
  mICE k3/Ki: "24,000 M^−1s^−1"
- Compound: "CC(C)[C@H](NC(=O)COc1cccc2ccccc12)C(=O)NC(CC(=O)O)C(=O)CF (mixture of isomers) [Example 53]"
  mICE k3/Ki: "129,000 M^−1s^−1"
- Compound: "C[C@H](NC(=O)COc1ccc2ccccc2c1)C(=O)NC(CC(=O)O)C(=O)COc1c(F)c(F)cc(F)c1F (stereo partly shown) [Example 176]"
  mICE k3/Ki: "11,100 M^−1s^−1"
- Compound: "CC(C)[C@H](NC(=O)COc1cccc2ccccc12)C(=O)N[C@@H](CC(=O)O)C(=O)COc1ccnc(C(F)(F)F)n1 [Example 121]"
  mICE k3/Ki: "24,800 M^−1s^−1"
- Compound: "CC(C)C[C@H](NC(=O)COc1ccccc1-c1ccccc1)C(=O)N[C@@H](CC(=O)O)C(=O)COC(=O)c1c(Cl)cccc1Cl [Example 162]"
  mICE k3/Ki: "22,200 M^−1s^−1"
- Compound: "CC(C)[C@H](NC(=O)COc1cccc2ccccc12)C(=O)N[C@@H](CC(=O)O)C(=O)COP(C)(C)=O [Example 105]"
  mICE k3/Ki: "18,000 M^−1s^−1"
